molecular target: ALDH1A1 (Homo sapiens); assay: ALDH1A1 isoform-specific enzyme assay; assay type: biochemical; details: read-out: IC50s ALDH1A1; propionaldehyde substrate, 15 minutes preincubation
Sequence (P00352 whole entry, canonical isoform): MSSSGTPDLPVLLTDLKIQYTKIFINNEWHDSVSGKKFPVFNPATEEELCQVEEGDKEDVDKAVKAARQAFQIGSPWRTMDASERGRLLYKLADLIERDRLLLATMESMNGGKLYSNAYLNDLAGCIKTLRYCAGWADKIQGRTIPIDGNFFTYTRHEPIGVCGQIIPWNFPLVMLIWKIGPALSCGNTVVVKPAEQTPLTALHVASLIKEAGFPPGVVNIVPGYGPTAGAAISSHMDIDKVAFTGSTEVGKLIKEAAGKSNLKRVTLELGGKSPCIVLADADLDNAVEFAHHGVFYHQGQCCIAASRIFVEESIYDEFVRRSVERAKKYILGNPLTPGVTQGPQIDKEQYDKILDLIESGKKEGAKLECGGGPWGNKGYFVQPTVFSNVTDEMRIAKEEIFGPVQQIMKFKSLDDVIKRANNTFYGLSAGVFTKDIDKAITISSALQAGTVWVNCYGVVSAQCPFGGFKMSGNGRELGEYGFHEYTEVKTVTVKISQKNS
EXPERIMENTAL_READOUT: IC50 (µM)
# value in µM; strip the unit string

Request: Return IC50 for the following compound: `Cc1nc2ccccc2n1S(=O)(=O)c1ccc(F)cc1`
Result: 139

* * *

target: ALDH1A1 (Homo sapiens); experiment: ALDH1A1 isoform-specific enzyme assay; format: biochemical; conditions: IC50s ALDH1A1, propionaldehyde substrate, 15 minutes preincubation
EXPERIMENTAL_READOUT: pIC50
Scale for pIC50: -log10 of concentration given in mol/L; no unit attached.

Request: Return pIC50 for the following molecule: `O=C1Nc2ccccc2C1=O`
Result: 4.81

* * *

molecular target: ALDH3A1 (Homo sapiens, UniProt P30838); assay: ALDH3A1 isoform-specific enzyme assay; assay type: biochemical; settings: read-out: IC50s ALDH3A1; 4-nitrobenzaldehyde substrate, 15 minutes preincubation
EXPERIMENTAL_READOUT: pIC50
Scale for pIC50: -log10 of concentration given in mol/L; no unit attached.

Request: Return pIC50 for the following compound: CCN(CC)c1ccc(C=O)cc1 [DEAB]
Result: 4.82

* * *

Target: ALDH3A1 (Homo sapiens, UniProt P30838)
Sequence (P30838 1-453): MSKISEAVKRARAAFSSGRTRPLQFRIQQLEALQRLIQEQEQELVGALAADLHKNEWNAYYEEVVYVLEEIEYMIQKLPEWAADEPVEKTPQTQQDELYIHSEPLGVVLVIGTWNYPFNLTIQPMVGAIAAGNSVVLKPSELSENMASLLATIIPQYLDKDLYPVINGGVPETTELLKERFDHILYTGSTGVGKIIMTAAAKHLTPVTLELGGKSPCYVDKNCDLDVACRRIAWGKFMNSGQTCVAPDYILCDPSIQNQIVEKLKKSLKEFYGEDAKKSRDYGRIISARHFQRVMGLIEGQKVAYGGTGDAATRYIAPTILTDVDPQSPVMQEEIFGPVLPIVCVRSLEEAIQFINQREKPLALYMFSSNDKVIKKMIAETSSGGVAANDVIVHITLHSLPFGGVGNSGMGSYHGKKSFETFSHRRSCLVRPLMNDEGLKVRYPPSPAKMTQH
Assay: ALDH3A1 isoform-specific enzyme assay
Type: biochemical
Conditions: IC50s ALDH3A1, 4-nitrobenzaldehyde substrate, 15 minutes preincubation
EXPERIMENTAL_READOUT: IC50 (µM)
# value in µM; strip the unit string

Request: Return IC50 for the following compound: O=C1Nc2ccccc2C1=O [Isatin]
Result: 5.05
